target: T1, Insulin receptor prepared according to Bass et al., 1996: soluble human insulin receptor-immunoglobulin heavy … (human, UniProt P06213 28-956); assay: phage ELISA, vs IGF-1R
T1 construct: extracellular domain; Eu3+-labelled in TR-FRET; also called IR; sIR-Fc; not shown: immunoglobulin heavy chain constant domains that replace the transmembrane and i
Positions of bridges follow the written chain, without caps; N, C: chain ends. No end group written: not given here.
experimentalEndpoint: IR/IGF-1R Comparison (ratio)
The response must be a number in ratio with no trailing unit.

Answered cases to consult:
IIGGFYSYFNSVLRLGT [NNRPγ-4-A1-IR] = 0.2
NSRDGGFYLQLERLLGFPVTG [20E2B-3-D4-IGFR] = 0.1
RFDPFYSYFVNLLGASA [NNRPγ-4-A7-IR] = 0.2
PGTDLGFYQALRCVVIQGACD (not fully specified (bridges); cysteine pairing not given here) [20E2B-2-22-IGFR] = 0.1
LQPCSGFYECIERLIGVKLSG (disulfide 4-10 (inferred)) [20E2Bβ-4-G7-IR] = 0.1

The reported value for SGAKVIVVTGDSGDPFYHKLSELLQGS [B6Eα-2-C10-IR] in terms of IR/IGF-1R Comparison is 0.2

The reported value for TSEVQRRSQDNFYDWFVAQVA [A6S-3-E2-IR] in terms of IR/IGF-1R Comparison is 0.4

The reported value for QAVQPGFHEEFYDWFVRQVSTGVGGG [H2CA-4-H4-IGFR] in terms of IR/IGF-1R Comparison is 0.2

The reported value for EGSGFYGYFFSLLGLQG [NNRPy-4-A9-IR] in terms of IR/IGF-1R Comparison is 0.1
